Reference source for all entries: patent US10494415B2

Hi there, I'd appreciate the recorded Kinetics koff for every entry that follows.
Assay Target: IGF2 (Homo sapiens, UniProt P01344)
Sequence (P01344 25-91): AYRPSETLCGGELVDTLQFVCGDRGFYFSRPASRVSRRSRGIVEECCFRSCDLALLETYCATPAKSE
Assay Remarks: SPR (Biacore T200) of recombinant IGF2R domain 11 mutants on immobilised biotinylated IGF2
Format: binding
Design: purchased GroPep
Settings: Table 1; 25° C., HBS-EP pH 7.4

Please state, for each entry, its recorded Kinetics koff.
1. S1602Q: domain 11 AB5 background + FG loop S1602Q (protein) MKSNEHDDCQVTNPSTGHLFDLSSLSGRAGFTAAYAKGWGVYMSICGENENCPPGVGACFGQTRISVGKANKRLRYVDQVLQLVYKDGSPCPSKQGLSYKSVISFVCRPEAGPTNRPMLISLDKQTCTLFFSWHTPLACEQATECSV
2. S1600Y: domain 11 AB5 background + FG loop S1600Y (protein) MKSNEHDDCQVTNPSTGHLFDLSSLSGRAGFTAAYAKGWGVYMSICGENENCPPGVGACFGQTRISVGKANKRLRYVDQVLQLVYKDGSPCPYKSGLSYKSVISFVCRPEAGPTNRPMLISLDKQTCTLFFSWHTPLACEQATECSV
3. K1631E: domain 11 HI loop mutant K1631E, probably AB5 background (protein) MKSNEHDDCQVTNPSTGHLFDLSSLSGRAGFTAAYAKGWGVYMSICGENENCPPGVGACFGQTRISVGKANKRLRYVDQVLQLVYKDGSPCPSKSGLSYKSVISFVCRPEAGPTNRPMLISLDEQTCTLFFSWHTPLACEQATECSV

result:
1: 0.0191 s⁻¹; 2: >0.2 s⁻¹; 3: >0.1 s⁻¹
